Entries and their pIC50 values follow.
targetOrTestSystem: full-length human RORγt (Homo sapiens (Human), UniProt P51449)
Sequence (P51449 other isoform, or with tags, fused parts or gaps): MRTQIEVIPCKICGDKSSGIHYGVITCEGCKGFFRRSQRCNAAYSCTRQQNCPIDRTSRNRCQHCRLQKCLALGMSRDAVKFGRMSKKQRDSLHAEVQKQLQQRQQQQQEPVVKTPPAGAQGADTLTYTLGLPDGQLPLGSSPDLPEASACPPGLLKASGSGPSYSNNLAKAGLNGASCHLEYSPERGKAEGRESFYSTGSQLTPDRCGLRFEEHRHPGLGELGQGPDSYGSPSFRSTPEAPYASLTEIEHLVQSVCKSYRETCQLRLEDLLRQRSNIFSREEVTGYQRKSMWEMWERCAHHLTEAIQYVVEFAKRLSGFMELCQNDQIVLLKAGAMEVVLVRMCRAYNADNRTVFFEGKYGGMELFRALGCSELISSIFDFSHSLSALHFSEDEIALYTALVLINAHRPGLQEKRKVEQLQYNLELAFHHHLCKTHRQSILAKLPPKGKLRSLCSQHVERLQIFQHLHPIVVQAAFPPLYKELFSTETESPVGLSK
assaySummary: RORγt (full-length human) reporter assay, Conditions B or C
Type: cell-based
studyConditions: read-out: RORγt (FL) Reporter Assay B or C, IC50
For clarity, pIC50 is expressed as the negative log10 of concentration in mol/L.

Q: Output pIC50 of C[C@H]1CCCN1C(=O)c1nc(C(=O)N2CC(O)C2)sc1-c1cnc(NC(C)(C)C)cc1C(F)(F)F
Ans: 7.55

Q: Output pIC50 of CC[C@H](Nc1cc(C(F)F)c(-c2sc(C(=O)N[C@@H]3CC[C@@H](O)C3)nc2C(=O)N2CCC[C@@H]2C)cn1)C(F)(F)F
Ans: 7.60

Q: Output pIC50 of C[C@H]1CCCN1C(=O)c1nc(C(=O)NC(C)(C)CO)sc1-c1cnc(NC(C)(C)C)cc1C(F)(F)F
Ans: 8.54

Q: Output pIC50 of C[C@H]1CCCN1C(=O)c1nc(C(=O)NCC(O)(C(F)(F)F)C(F)(F)F)sc1-c1cnc(NC(C)(C)C)cc1C(F)F
Ans: 7.55

Q: Output pIC50 of C[C@H](Nc1cc(C(F)F)c(-c2sc(C(=O)N[C@@H]3CC[C@@H]3O)nc2C(=O)N2CCC[C@@H]2C)cn1)C(F)(F)F (relative stereo)
Ans: 7.46

***
Q: Output pIC50 of C[C@H]1CCCN1C(=O)c1nc(C(=O)NC2CCOCC2)sc1-c1cnc(NC(C)(C)C)cc1C(F)(F)F
Ans: 8.32

Q: Output pIC50 of C[C@H]1CCCN1C(=O)c1nc(C(=O)NC[C@@H](O)C(F)(F)F)sc1-c1cnc(NC(C)(C)C)cc1C(F)(F)F (relative stereo)
Ans: 7.82

Q: Output pIC50 of C[C@H](Nc1cc(C(F)F)c(-c2sc(C(=O)N[C@@H]3CC[C@@H](O)C3)nc2C(=O)N2CCC[C@@H]2C)cn1)C(F)(F)F
Ans: 7.16

Q: Output pIC50 of C[C@H]1CCCN1C(=O)c1nc(C(=O)N[C@H]2C[C@H](O)C2)sc1-c1cnc(NC(C)(C)C)cc1C(F)(F)F
Ans: 7.19

Q: Output pIC50 of CC[C@H](Nc1cc(C(F)F)c(-c2sc(C(=O)N3CC4CCC(C3)O4)nc2C(=O)N2CCC[C@@H]2C)cn1)C(F)(F)F
Ans: 7.10

Q: Output pIC50 of C[C@H]1CC(F)(F)CN1C(=O)c1nc(C(=O)N[C@H]2C[C@H](O)C2)sc1-c1cnc(NC(C)(C)C)cc1C(F)F
Ans: 8.02

Q: Output pIC50 of C[C@H]1CC(F)(F)CN1C(=O)c1nc(C(=O)N[C@H](C)C(C)(C)O)sc1-c1cnc(N[C@@H](C2CC2)C(F)(F)F)cc1C(F)F
Ans: 7.46

Q: Output pIC50 of CC(C)[C@@H](C)Nc1cc(C(F)F)c(-c2sc(C(=O)NCC(C)(C)O)nc2C(=O)N2CCC[C@@H]2C)cn1
Ans: 7.30

Q: Output pIC50 of C[C@H]1CCCN1C(=O)c1nc(C(=O)NCC(C)(C)O)sc1-c1cnc(NCC2(C(F)(F)F)CCC2)cc1C(F)F
Ans: 7.44

Q: Output pIC50 of C[C@H]1CCCN1C(=O)c1nc(C(=O)NC2CCS(=O)(=O)CC2)sc1-c1cnc(NC2(C)CCC2)cc1C(F)F
Ans: 7.42

Q: Output pIC50 of CC(C)[C@@H](C)NC(=O)c1nc(C(=O)N2CCC[C@@H]2C)c(-c2cnc(NC(C)(C)C)cc2C(F)(F)F)s1
Ans: 8.24

Q: Output pIC50 of C[C@H](CO)NC(=O)c1nc(C(=O)N2CCC[C@@H]2C)c(-c2cnc(NC(C)(C)C)cc2C(F)(F)F)s1
Ans: 7.89

Q: Output pIC50 of CC[C@@H](CO)NC(=O)c1nc(C(=O)N2CCC[C@@H]2C)c(-c2cnc(N[C@@H](C)C(F)(F)F)cc2C(F)F)s1
Ans: 6.92

Q: Output pIC50 of CC[C@H](CO)NC(=O)c1nc(C(=O)N2CCC[C@@H]2C)c(-c2cnc(N[C@@H](C)C(F)(F)F)cc2C(F)F)s1
Ans: 7.14

Q: Output pIC50 of C[C@H]1CCCN1C(=O)c1nc(C(=O)N[C@H](C)C(C)(C)O)sc1-c1cnc(N[C@H](C2CC2)C(F)(F)F)cc1C(F)F
Ans: 7.05

The measurements presented in this section are drawn from patent US10975068B2.
